system: Phakopsora pachyrhizi; test: Phakopsora pachyrhizi/Soybean/Preventative (Soybean Rust); format: in vivo; details: 288 h, Phakopsora pachyrhizi (Soybean rust), 20 ppm
In this section, each of the compounds is paired with its reported pest or weed control at 20 ppm.
Your answer should be a plain number; it is taken to be in %.

Solved cases below.
CCCc1ccn(-c2ccc(C)c(O/C(=C\OC)C(=O)OC)c2)n1    95
CO/C=C(\Oc1cc(-n2cccc2)ccc1C)C(=O)OC [Compound X-2, reference compound]    0

Given the entry CCCc1cnn(-c2ccc(C)c(O/C(=C\OC)C(=O)OC)c2)n1 , report its measured pest or weed control at 20 ppm.
90

Would you mind doing CO/C=C(\Oc1cc(-c2cccc(C(F)(F)F)n2)ccc1C)C(=O)OC [Compound X-3, reference compound] as well?
10

###

test: Photostability assay (Atlas Suntest); type: physicochemical; settings: Suntest 750 W/m^2, spotted on microscope slides
measurementType: % Parent Remaining @ 3 hrs (%)
Your answer should be a plain number; it is taken to be in %.

Solved cases below.
CO/C=C(\Oc1cccc(-n2cccc2)c1)C(=O)OC [Compound X-1, reference compound]    9
CO/C=C(\Oc1cc(-n2ccc(C(C)C)n2)c(F)cc1C)C(=O)OC    28
CO/C=C(\Oc1cc(-n2ccc(CC(C)C)n2)ccc1C)C(=O)OC    42

Switching to the query record.
Given the entry CO/C=C(\Oc1cc(-n2ccc(C(F)(F)F)n2)ccc1C)C(=O)OC , report its measured % Parent Remaining @ 3 hrs.
74

###

In this section, each of the molecules is paired with its reported melting point.

Solved cases below.
CO/C=C(\Oc1cc(-n2ccc(Br)n2)ccc1C)C(=O)OC    106 to 110 °C
CO/C=C(\Oc1cc(-n2ccc(C(C)=NOC)n2)ccc1C)C(=O)OC    130 to 133 °C
CO/C=C(\Oc1cc(-n2ccc(CSC)n2)ccc1C)C(=O)OC    78 to 80 °C

Given the entry C=C(C)c1ccn(-c2ccc(C)c(O/C(=C\OC)C(=O)OC)c2)n1 , report its measured melting point.
80 to 84 °C

Would you mind doing CO/C=C(\Oc1cc(-n2ccc(C(C)C)n2)cc(F)c1C)C(=O)OC as well?
114 to 116 °C

Would you mind doing CO/C=C(\Oc1cc(-n2ccc(C#CC3CC3)n2)ccc1C)C(=O)OC as well?
158 to 162 °C

Would you mind doing CCCc1ccn(-c2ccc(C)c(O/C(=C\OC)C(=O)OC)c2)n1 as well?
91 to 94 °C

Would you mind doing CO/C=C(\Oc1cc(-n2ccc(C3CCCCC3)n2)ccc1C)C(=O)OC as well?
85 to 89 °C

###

In this section, each of the compounds is paired with its reported melting point.

CO/C=C(\Oc1cc(-n2cc(Br)c(C3CCCCC3)n2)ccc1C)C(=O)OC    120 to 126 °C
CO/C=C(\Oc1cc(-n2ccc(C(F)(F)F)n2)cc(OC)c1C)C(=O)OC    153 to 156 °C
CO/C=C(\Oc1cc(-n2ccc(C3CCCCC3)n2)cc(C)c1C)C(=O)OC    90 to 93 °C

Given the entry CO/C=C(\Oc1cc(-n2ccc(C3CCCCC3)n2)c(Cl)cc1C)C(=O)OC , report its measured melting point.
127 to 129 °C

Would you mind doing CO/C=C(\Oc1cc(-n2ccc(C(F)(F)F)n2)ccc1C1CC1)C(=O)OC as well?
130 to 132 °C

Would you mind doing CO/C=C(\Oc1cc(-n2ccc(C(F)(F)F)n2)c(OC)cc1C)C(=O)OC as well?
130 to 133 °C

Would you mind doing CO/C=C(\Oc1cc(-n2ccc(C(F)(F)F)n2)c(C)cc1C)C(=O)OC as well?
96 to 98 °C

Would you mind doing CCc1ccc(-n2ccc(C(F)(F)F)n2)cc1O/C(=C\OC)C(=O)OC as well?
135 to 137 °C

Would you mind doing CO/C=C(\Oc1cc(-n2ccc(C)n2)ccc1C1CC1)C(=O)OC as well?
189 to 191 °C

Would you mind doing CO/C=C(\Oc1cc(-n2ccc(C(C)C)n2)c(C)cc1C)C(=O)OC as well?
96 to 98 °C

Would you mind doing CCCOc1ccn(-c2ccc(C)c(O/C(=C\OC)C(=O)OC)c2)n1 as well?
85 to 87 °C

Would you mind doing CC#Cc1ccn(-c2ccc(C)c(O/C(=C\OC)C(=O)OC)c2)n1 as well?
175 to 179 °C

Would you mind doing CO/C=C(\Oc1cc(-n2cc(C)c(C)n2)ccc1C)C(=O)OC as well?
155 to 157 °C

Would you mind doing CO/C=C(\Oc1cc(-n2ncc(C(C)=NO)n2)ccc1C)C(=O)OC as well?
146 to 150 °C

Would you mind doing CO/C=C(\Oc1cc(-n2cc(C(F)(F)F)cn2)ccc1C)C(=O)OC as well?
102 to 105 °C

Would you mind doing CO/C=C(\Oc1cc(-n2ccc(C(F)(F)C(F)(F)F)n2)ccc1C)C(=O)OC as well?
117 to 120 °C

Would you mind doing CO/C=C(\Oc1cc(-n2ccc(CC(C)C)n2)ccc1C)C(=O)OC as well?
76 to 80 °C

Would you mind doing CO/C=C(\Oc1cc(-n2cc(F)c(C(C)C)n2)ccc1C)C(=O)OC as well?
111 to 113 °C

Would you mind doing CO/C=C(\Oc1cc(-n2cc(Br)c(C)n2)ccc1C)C(=O)OC as well?
120 to 122 °C

Would you mind doing CO/C=C(\Oc1cc(-n2ccc(C(F)(F)F)n2)ccc1C)C(=O)OC as well?
154 to 156 °C

Would you mind doing CO/C=C(\Oc1cc(-n2ccc(C3CCC3)n2)ccc1C)C(=O)OC as well?
91 to 94 °C

Would you mind doing CO/C=C(\Oc1cc(-n2ccc(C(C)C)n2)c(Cl)cc1C)C(=O)OC as well?
96 to 98 °C

Would you mind doing CO/C=C(\Oc1cc(-n2ccc(SC(F)(F)F)n2)ccc1C)C(=O)OC as well?
137 to 139 °C
